Recorded values, source the COVID Moonshot data (paper PMC11187573).

Target: UniProt:P0DTD1
Details: 20.0 µM
measuredProperty: inhibition (%)
Give a bare numeral; the unit % is implied.

# compound, inhibition / %
records = [
    ("CCCNC(=O)C(C)NC(=O)N(C)Cc1csc(C)n1 (stereo unspecified)", 0),
    ("COc1ccc(C2CC(c3cccs3)=NN2C(=O)CCl)cc1OC (stereo unspecified)", 95.7),
    ("C=CC(=O)N(c1ccc(C2(C)CC2)cc1)C(C(=O)Nc1ccc(Cl)cc1)c1cccnc1 (stereo unspecified)", 0),
    ("Cc1ccc(-c2cc(C(F)(F)F)nn2-c2ccc(S(N)(=O)=O)cc2)cc1", 2.17),
    ("O=C(CC(=O)Nc1ccncc1)Nc1ccccc1", 0),
]

Then this compound:
# inhibition of C=CC(=O)N(c1ccc2cc[nH]c2c1)C(C(=O)NC(C)(C)C)c1cccnc1 (stereo unspecified) = 0
